Recorded values, source BindingDB's records for doi:10.1016/j.bmcl.2020.127004.

- protocol_description: Non-nucleoside inhibition of NS5B polymerase in HCV genotype 3a by Taqman probe based RT-PCR analysis

>  <compound_structure>
CNC(=O)c1c(-c2ccc(F)cc2)oc2cc(N(C)S(C)(=O)=O)c(-c3ccc4nc(C)n([C@@H](COC)c5ccc(F)cc5)c(=O)c4c3)cc12

>  <EC50>
1.1 nM

$$$$
>  <compound_structure>
CNC(=O)c1c(-c2ccc(F)cc2)oc2cc(N(C)S(C)(=O)=O)c(-c3ccc4ncn(Cc5ccccc5)c(=O)c4c3)cc12

>  <EC50>
1.2 nM

$$$$
>  <compound_structure>
CNC(=O)c1c(-c2ccc(F)cc2)oc2cc(N(C)S(C)(=O)=O)c(-c3ccc4nnn([C@H](COC)c5ccc(F)cc5)c(=O)c4c3)cc12

>  <EC50>
1 nM

$$$$
